# tested system: Tyrosyl-tRNA synthetase, putative (Trypanosoma cruzi (strain CL Brener))
# procedure details: Trypanosoma cruzi tyrosyl tRNA synthetase (TcYRS) _High Tyrosine SOP; note: in the data most compounds retested in dose-response had high values
# Type: functional
# Design: scale not given: direction of the effect not stated beside the values
# measurement setup: 30 µM
// thresholds for Percent Effect classes: lower band: < 4%; central band: ≥ 4% and < 6%; upper band: ≥ 6%

molecule: O=C(c1ccc(F)c(F)c1)N1CCCC1CN1CCCC1 (centres undefined)
cat: upper band
//
molecule: N#Cc1cccc(S(=O)(=O)NC(=O)COC2CCCC2)c1
cat: upper band
//
molecule: O=C1[C@H]2CC[C@H](CN(C3CSCCSC3)C2)N1Cc1cscn1
cat: upper band
//
molecule: Cc1nn(CCO)c(C)c1CNC1CCc2c(Cl)cccc21 (centres undefined)
cat: lower band
//
molecule: CCn1nc(CC(C)C)cc1C(=O)N1CC[C@@H](O)C1
cat: lower band
//
molecule: CNS(=O)(=O)Cc1ccc(CNC(=O)Nc2cccnc2)cc1
cat: upper band
//
molecule: CC(C(=O)NCc1ccnc(Oc2ccc(F)cc2)c1)n1cncn1 (centres undefined)
cat: central band
//
molecule: Cc1nc(CN2CCCN(C(=O)C3(C#N)CCCCC3)CC2)cs1
cat: upper band
//
molecule: CCCn1nc2c(cc1=O)CN(CCCN1CCCC1=O)CC2
cat: central band
//
molecule: Cc1nn(C)c(C)c1C1CCCN1Cc1noc(C2CC2)n1 (centres undefined)
cat: upper band
//
molecule: Cc1noc([C@@H]2C[C@H]3OCC[C@H]3N(S(C)(=O)=O)C2)n1
cat: upper band
//
molecule: O=C(Cn1ccc2ccc(Br)cc21)NC[C@@H]1CCCN2CCCC[C@H]12
cat: lower band
//
molecule: Cc1ccc(C(=O)NCCCNS(C)(=O)=O)cc1-n1cccc1
cat: upper band
//
molecule: Cc1ncoc1C(=O)N1C[C@H]2CCC[C@@]2(COCC2CCOCC2)C1
cat: lower band
//
molecule: CC(=O)Nc1nc(C(=O)Nc2ccc(N3CCCCC3)nc2)cs1
cat: upper band
//
molecule: Cc1cc(CNC(=O)NC(C)c2ccc(N3CCOCC3)cc2)no1 (centres undefined)
cat: central band
//
molecule: Cc1nc(C)n(C2CCCN(C(=O)c3csnn3)C2)n1 (centres undefined)
cat: central band
//
molecule: Cc1nc(CN2CCN(CC(=O)Nc3c(C)cccc3C)CC2)no1
cat: upper band
//
molecule: CN(C)C(=O)COC1COC2(CCN(S(C)(=O)=O)CC2)C1 (centres undefined)
cat: central band
//
molecule: O=C(Cc1ccsc1)N1CCCC(c2n[nH]c3nccnc23)C1 (centres undefined)
cat: lower band
//
molecule: O=C(CCNS(=O)(=O)c1ccc2c(c1)CCCC2)NCc1ccoc1
cat: central band
//
molecule: CCOCC1CN(S(C)(=O)=O)Cc2cnn(C)c21 (centres undefined)
cat: central band
//
molecule: c1ccc(OCCCNCCn2cccn2)cc1
cat: central band
//
molecule: CN1CCCc2cc(NC(=O)N3CCOC(C(N)=O)C3)ccc21 (centres undefined)
cat: upper band

* * *

# tested system: Tyrosyl-tRNA synthetase, putative (Trypanosoma cruzi (strain CL Brener))
# procedure details: Trypanosoma cruzi tyrosyl tRNA synthetase (TcYRS) SOP
# Type: functional
# Set-up: scale not given: direction of the effect not stated beside the values
# measurement setup: 30 µM

compound: Cc1ccc(C(=O)N2CCO[C@H]3[C@@H](OCc4ccccn4)CC[C@@H]32)o1
Percent Effect [%]: -8.97

compound: Cc1ccc(CN2CCCC3(CCN(S(C)(=O)=O)C3)C2)o1 (configuration not stated)
Percent Effect [%]: 14.1

compound: CCOc1ccc(C2CC(=O)Nc3c2c(=O)nc2sccn32)cc1 (configuration not stated)
Percent Effect [%]: 7.69

compound: O=C(CCNS(=O)(=O)c1ccc2c(c1)CCCC2)NCc1ccoc1
Percent Effect [%]: 11.1

compound: O=C(c1ccncc1F)N1CCc2ncnc(-c3ccncc3)c2CC1
Percent Effect [%]: 7.69

compound: Cc1ccc2c(ccn2CCC(=O)NC[C@@H]2CCCN3CCCC[C@H]23)c1
Percent Effect [%]: 10.3

compound: CS(=O)(=O)NCCCN1CCCC1c1ccccc1 (configuration not stated)
Percent Effect [%]: 13.9

compound: NC(=O)C1CCN(Cn2nc(-c3ccccc3)oc2=O)CC1
Percent Effect [%]: 16.1

compound: O=C(c1cccc(S(=O)(=O)NCCCc2ccco2)c1)N1CCOCC1
Percent Effect [%]: 15

compound: Cn1cc(CN2CCC(F)(F)C3(CCN(c4cnccn4)C3)C2)cn1 (configuration not stated)
Percent Effect [%]: 8.54

compound: Cc1cc(CN2CCN(C(=O)NC(C)c3cccnc3)CC2)on1 (configuration not stated)
Percent Effect [%]: 19.5

compound: CC(=O)N1CCCC1c1ccc(-c2c(C)noc2C)cn1 (configuration not stated)
Percent Effect [%]: -3.9

compound: COc1cc(CNC(=O)NCCCF)cc(Br)c1OC
Percent Effect [%]: 1.24

compound: Cc1noc(CN2Cc3ccccc3CC2c2nnc(C)o2)n1 (configuration not stated)
Percent Effect [%]: 7.06

compound: CS(=O)(=O)N1C[C@@H]2CC[C@H](C1)N(Cc1cscn1)C2=O
Percent Effect [%]: 18.5

compound: Cn1cc(CN2C[C@@H]3COC[C@]3(COc3ccc(C#N)cn3)C2)cn1
Percent Effect [%]: 11.1

compound: CCOc1cc(C)nc(N2CCN(C(=O)c3ccc[nH]3)CC2)n1
Percent Effect [%]: 3.66

compound: CCn1cc(N2Cc3nc(N)ncc3C2=O)cn1
Percent Effect [%]: 17.9

compound: c1cncc(COCC2CN(Cc3ccco3)Cc3ccnn3C2)c1 (configuration not stated)
Percent Effect [%]: 13.6

compound: COc1ccc([C@@H]2CN(C(=O)CCC(F)(F)F)C[C@H]2NC(C)=O)cc1
Percent Effect [%]: 8.64

compound: Cc1noc(C)c1CNCC1CCCN1c1cccnn1 (configuration not stated)
Percent Effect [%]: -2.35

compound: Cc1cc(CN2CCOCS2(=O)=O)ccc1F
Percent Effect [%]: 4.88

compound: CC(C)Nc1ncnc2c1CCN(C(=O)c1ccncc1F)CC2
Percent Effect [%]: 10.3

compound: O=C(CCNC(=O)c1ccccc1N1CCOCC1)NC1CCCC1
Percent Effect [%]: 21

compound: O=C1OC2(CCNCC2)CN1CC(=O)N1CCCC1c1ccco1 (configuration not stated)
Percent Effect [%]: 19.5

compound: Cc1ccc(C(=O)N2CCN(Cc3nc(C(C)C)no3)CC2)c(=O)[nH]1
Percent Effect [%]: 1.22

compound: COC(=O)C(c1cc(F)ccc1F)N(C)C(=O)c1cccnc1O (configuration not stated)
Percent Effect [%]: 12.7

compound: COc1ccc(CN2CCC3(CC2)CCN(c2ncccn2)CC3)cc1
Percent Effect [%]: 5.13

compound: CCOc1ccc(S(=O)(=O)NCc2cccnc2N(C)C)cc1
Percent Effect [%]: 26.6

compound: Cc1cc(C2CCCN(CCc3ccccn3)C2)n[nH]1 (configuration not stated)
Percent Effect [%]: 11.4

compound: CCc1noc(C(C)N2CCN(Cc3ncc(C(C)(C)C)o3)CC2)n1 (configuration not stated)
Percent Effect [%]: 9.76

compound: O=C([C@H]1C[C@@H]2CCN(C3CCOCC3)C[C@@H]2O1)N1CCOCC1
Percent Effect [%]: 12.5

compound: CC1CCCN(C(=O)CCc2cccnc2)C1 (configuration not stated)
Percent Effect [%]: 16.5

compound: O=C(CCc1nccs1)N1CCN(c2ncccn2)CC1
Percent Effect [%]: 18.8

compound: O=C(c1ccn(-c2cccc(Cl)c2)n1)N1CCN(C2CC2)CC1
Percent Effect [%]: -4.88

compound: O=C(N[C@@H]1CN(c2ncccn2)C[C@@H]2CCCO[C@@H]21)c1cnccn1
Percent Effect [%]: 20

compound: CCc1cc(NCc2ccccc2CN2CCCC2)n2ncnc2n1
Percent Effect [%]: -2.6

compound: CNC(=O)[C@@]12CCCN(c3ncccn3)[C@@H]1CN(C(=O)NC(C)C)C2
Percent Effect [%]: 14.1

compound: CN(Cc1cn2c(n1)CN(CC1CC1)CC2)Cc1ccco1
Percent Effect [%]: 8.97

compound: Cc1cnn(CCNCc2ccccc2C#N)c1
Percent Effect [%]: -1.22

compound: Cc1nc(CCCNC(=O)C2CC(=O)N(C(C)(C)C)C2)sc1C (configuration not stated)
Percent Effect [%]: 13.6

compound: COc1ccc(S(=O)(=O)NCc2cccnc2N(C)C)cc1F
Percent Effect [%]: 24.1

compound: COc1nn(C)c2c1CCCN(C(=O)c1ccccc1)C2
Percent Effect [%]: 1.22

compound: c1coc(-c2nnc(CN3CCOC(Cn4cccn4)C3)o2)c1 (configuration not stated)
Percent Effect [%]: 13.9

compound: CN(CCCc1cnn(C)c1)C(=O)C1COc2ccccc2C1 (configuration not stated)
Percent Effect [%]: 17.5

compound: CCC1=N[C@@]2(CC[C@@H]3CN(CC(=O)N(C)C)C[C@@H]32)C(=O)N1CC1CC1
Percent Effect [%]: 10.3

compound: CC(C)(C)N1CC(C(=O)N2CCN(CCc3ccccc3)CC2)CC1=O (configuration not stated)
Percent Effect [%]: 11.1
